tested on: 885512-296-R-J2-PDC complex spheroid growth, % test/control; test: Anticancer human tumor 885512-296-R-J2-PDC patient-derived breast carcinoma cell line growth inhibition [AhR]; settings: curve of first compound; second compound 1 µM;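 also: spheroids exposed to compounds for seven days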
property: log10 of IC50 (log10 of the value in nM)
Short version: log10 scale, IC50, nM.

compound	log10 of IC50
COc1cc(Nc2ncc3c(n2)-c2ccc(Cl)cc2C(c2c(F)cccc2OC)=NC3)ccc1C(=O)O + Cc1ccccc1N=Nc1ccc(NC(=O)c2ccnn2C)c(C)c1	3.74

Given Nc1ccccc1NC(=O)c1ccc(CNC(=O)OCc2cccnc2)cc1 + Cc1ccccc1N=Nc1ccc(NC(=O)c2ccnn2C)c(C)c1 , respond with its log10 of IC50.
2.98

Given NS(=O)(=O)OCC1CC(n2ccc3c(NC4CCc5ccccc54)ncnc32)CC1O (centres undefined) + Cc1ccccc1N=Nc1ccc(NC(=O)c2ccnn2C)c(C)c1 , respond with its log10 of IC50.
1.95

Given CC1(C)CCC(CN2CCN(c3ccc(C(=O)NS(=O)(=O)c4ccc(NCC5CCOCC5)c([N+](=O)[O-])c4)c(Oc4cnc5[nH]ccc5c4)c3)CC2)=C(c2ccc(Cl)cc2)C1 + CC(CO)NC(=O)c1cc(-c2ccc(Cl)cc2)nn(-c2cnn(C)c2)c1=O , respond with its log10 of IC50.
3.88

Given Nc1ccccc1NC(=O)c1ccc(CNC(=O)OCc2cccnc2)cc1 + CC(CO)NC(=O)c1cc(-c2ccc(Cl)cc2)nn(-c2cnn(C)c2)c1=O , respond with its log10 of IC50.
2.85

Given NS(=O)(=O)OCC1CC(n2ccc3c(NC4CCc5ccccc54)ncnc32)CC1O (centres undefined) + Cc1cncc(-c2nc(NCCc3c[nH]c4ccccc34)c3ncn(C(C)C)c3n2)c1 , respond with its log10 of IC50.
1.89

Given O=C(C=Cc1cccc(S(=O)(=O)Nc2ccccc2)c1)NO + Cc1cncc(-c2nc(NCCc3c[nH]c4ccccc34)c3ncn(C(C)C)c3n2)c1 , respond with its log10 of IC50.
2.83

Given CC1COCCN1c1cc(-c2ccnn2C)c2ccnc(-c3ccn[nH]3)c2n1 (centres undefined) + Cc1cncc(-c2nc(NCCc3c[nH]c4ccccc34)c3ncn(C(C)C)c3n2)c1 , respond with its log10 of IC50.
1.34

Given COc1cc(C2c3cc4c(cc3C(OC3OC5COC(C)OC5C(O)C3O)C3COC(=O)C23)OCO4)cc(OC)c1O (centres undefined) + Cc1cncc(-c2nc(NCCc3c[nH]c4ccccc34)c3ncn(C(C)C)c3n2)c1 , respond with its log10 of IC50.
2.60

Given CC[C@@]1(O)C(=O)OCc2c1cc1n(c2=O)Cc2cc3c(CN(C)C)c(O)ccc3nc2-1 + Cc1ccccc1N=Nc1ccc(NC(=O)c2ccnn2C)c(C)c1 , respond with its log10 of IC50.
0.70

Given CC(C)CC(NC(=O)C(Cc1ccccc1)NC(=O)c1cnccn1)B(O)O (centres undefined) + CC(CO)NC(=O)c1cc(-c2ccc(Cl)cc2)nn(-c2cnn(C)c2)c1=O , respond with its log10 of IC50.
0.74

Given O=C(c1cc(Cc2n[nH]c(=O)c3ccccc23)ccc1F)N1CCN(C(=O)C2CC2)CC1 + Cc1ccccc1N=Nc1ccc(NC(=O)c2ccnn2C)c(C)c1 , respond with its log10 of IC50.
3.74

Given COc1cc(C2c3cc4c(cc3C(OC3OC5COC(C)OC5C(O)C3O)C3COC(=O)C23)OCO4)cc(OC)c1O (centres undefined) + CC(CO)NC(=O)c1cc(-c2ccc(Cl)cc2)nn(-c2cnn(C)c2)c1=O , respond with its log10 of IC50.
2.83

Given CC[C@@]1(O)C(=O)OCc2c1cc1n(c2=O)Cc2cc3c(CN(C)C)c(O)ccc3nc2-1 + CC(CO)NC(=O)c1cc(-c2ccc(Cl)cc2)nn(-c2cnn(C)c2)c1=O , respond with its log10 of IC50.
1.03

Given CC(C)CC(NC(=O)C(Cc1ccccc1)NC(=O)c1cnccn1)B(O)O (centres undefined) + Cc1ccccc1N=Nc1ccc(NC(=O)c2ccnn2C)c(C)c1 , respond with its log10 of IC50.
0.80
